Biological target: T1, PUF4 RNA-binding domain (Saccharomyces cerevisiae, UniProt P25339 537-888)
T1 sequence: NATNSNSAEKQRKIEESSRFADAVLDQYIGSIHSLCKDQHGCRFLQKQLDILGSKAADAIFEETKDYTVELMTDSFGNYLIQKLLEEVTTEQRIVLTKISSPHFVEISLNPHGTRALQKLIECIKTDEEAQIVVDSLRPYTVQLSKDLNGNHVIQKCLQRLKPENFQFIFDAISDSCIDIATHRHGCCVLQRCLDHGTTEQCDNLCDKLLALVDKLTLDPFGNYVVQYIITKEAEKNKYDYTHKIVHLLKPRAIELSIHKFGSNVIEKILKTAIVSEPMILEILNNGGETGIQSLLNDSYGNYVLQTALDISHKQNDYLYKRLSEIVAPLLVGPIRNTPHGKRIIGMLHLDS
Assay: Mg; RNA-MaP; 20 mM Na-HEPES pH 7.4, 30 mM KOAc, 0.75 mM MgCl2, 0.1% Tween-20, 5% glycerol, 0.1 mg/mL BSA, 2 mM DTT; 25 C; 0.0125-409.6 nM protein
Details: tags: N-His6-TEV cleaved; C-SNAP kept, Cy3B-labelled; label: tethered on chip by stalled RNA polymerase
Doc: threshold 20 nM (exclusive). Items with Kd beneath it return label 1; others return label 0.

INSERT INTO results (binder, group) VALUES
  ('ACAAACCGUCUAUAACAAAC (ssRNA) [Ib_S3_P3E.1_K3.1_C3.1_H3.1_[T1C]_[A4C]_A3.1_F3.1_T3.1]', 'label 0'),
  ('ACAAACCCUAUAUAUACCACAAAC (ssRNA) [Id_ii_S3_P3E.3_K3.2_C3.2_[T-1C]_H3.2_A3.1_F3.1_T3.2_[T9C]_[A10C]]', 'label 0'),
  ('Ic_S4_P5E.1_K5.1_C5.1_H5.1_A5.1_[T5G]_[A7T]_F5.1_[T8A]_[A10T]_T5.1 (ssRNA) RNA: UUUGACAACUGAUCGUUCUUUCUUGUAGUUAUUUUCUUUCUCGAUCAGUUGUCUUU', 'label 0'),
  ('Id_iii_S2_P4E.5_K4.1_C4.3_H4.1_A4.1_F4.1_T4.2_[G10A] (ssRNA) RNA: UUUGAUUAAUAUGAUAUCGUUCUUUCUUCUUGUAUAUUAAUUUCUUUCUCGAUAUCAUAUUAAUCUUU', 'label 1'),
  ('UCUCUUUGUAUGGUAUCUCUU (ssRNA) [Ib_S1_P4E.1_K4.1_C4.1_H4.1_A4.1_[A6G]_[T7G]_F4.1_T4.1]', 'label 1');
